- System: HFF
- ASSAY_SUMMARY: Antiproliferative activity against HFF after 3 days by coulter counter assay
- Format: cell-based
- EXPERIMENTAL_CONDITIONS: Homo sapiens, 72 h
OUTCOME_MEASURE: pIC50
Answers are plain numbers, as −log10 of the molar value.

Study these solved cases before continuing.
INSERT INTO results (compound, observed_measurement) VALUES
  ('O=c1[nH]c(=O)n([C@H]2C[C@H](O)[C@@H](CO)S2)cc1Br', 6.70),
  ('CC(=O)OC[C@H]1S[C@@H](n2cc(I)c(=O)[nH]c2=O)C[C@@H]1OC(C)=O', 4.59),
  ('Nc1ccn([C@@H]2S[C@H](CO)[C@@H](O)[C@@H]2O)c(=O)n1 [THIARABINE]', 6.00),
  ('O=c1[nH]c(=O)n([C@H]2C[C@H](O)[C@@H](CO)S2)cc1C(F)(F)F', 6.85),
  ('Nc1ccn(C[C@@H](CO)OCP(=O)(O)O)c(=O)n1.O.O [CIDOFOVIR]', 5.72);

Lookup: Identify measured pIC50 associated with `O=c1[nH]c(=O)n([C@H]2C[C@H](O)[C@@H](CO)S2)cc1I`
Found: 5.52

====

- ASSAY_SUMMARY: Cytotoxicity against HFF after 7 days by neutral red uptake assay
- Type: cell-based
- EXPERIMENTAL_CONDITIONS: human, HFF cells
Provide the recorded CC50 at 168 h for the entries that follow.

// below: answered compounds
INSERT INTO results (molecule, observed_measurement) VALUES
  ('O=c1[nH]c(=O)n([C@H]2C[C@H](O)[C@@H](CO)S2)cc1Br', '> 100 µM'),
  ('Nc1nc(=O)n([C@@H]2S[C@H](CO)[C@@H](O)[C@@H]2O)cc1F', '> 100 µM');

// moving on: another record for CC50 at 168 h
Lookup: Return CC50 at 168 h for the following compound: `CC(=O)OC[C@H]1S[C@@H](n2cc(I)c(=O)[nH]c2=O)C[C@@H]1OC(C)=O`
Found: > 100 µM

====

- Tested on: Cowpox virus
- ASSAY_SUMMARY: Antiviral activity against Cowpox virus Brighton infected in HFF assessed as reduction of plaque formation after 3 days
- Type: functional, organism-based
- EXPERIMENTAL_CONDITIONS: 72 h
OUTCOME_MEASURE: EC50 (µM)
Give bare numbers, in µM.

Recorded results for 5 compounds are shown here.
INSERT INTO measurements (compound, unit_annotation, observed_measurement) VALUES
  ('O=c1[nH]c(=O)n([C@H]2C[C@H](O)[C@@H](CO)S2)cc1C(F)(F)F', 'µM', 0.08),
  ('Nc1nc(=O)n([C@@H]2S[C@H](CO)[C@@H](O)[C@@H]2O)cc1F', 'µM', 0.4),
  ('O=c1[nH]c(=O)n([C@H]2C[C@H](O)[C@@H](CO)S2)cc1Br', 'µM', 0.05),
  ('CC(=O)OC[C@H]1S[C@@H](n2cc(I)c(=O)[nH]c2=O)C[C@@H]1OC(C)=O', 'µM', 0.33),
  ('Nc1ccn([C@@H]2S[C@H](CO)[C@@H](O)[C@@H]2O)c(=O)n1 [THIARABINE]', 'µM', 1.6);

Next, consider the following compound.
Lookup: Dear colleague, please send me the reported EC50 for Cc1cn([C@H]2C[C@H](O)[C@@H](CO)S2)c(=O)[nH]c1=O [4'-THIOTHYMIDINE] when you can.
Found: 0.02
